The measured values listed here are drawn from patent US8436183B2.

- Subject of test: FKBP F36M (Homo sapiens, UniProt P62942, F37M)
- Construct: made in house
- Sequence (P62942 whole entry F37M): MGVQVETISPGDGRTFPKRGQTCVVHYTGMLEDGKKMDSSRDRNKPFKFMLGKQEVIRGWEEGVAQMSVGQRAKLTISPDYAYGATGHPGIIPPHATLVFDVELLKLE
- Assay details: Competitive Binding FP Assay, F36M mutant FKBP
- Measurement setup: Synthetic Monomers table; normalized to FK506 run in the same experiment
For each record, write down the corresponding pIC50.
Give bare numbers, as −log10 of the molar value.

COc1ccc(CCC(OC(=O)C2CCCCN2C(=O)C(c2ccccc2)C(C)C)c2cccc(OCC(=O)O)c2)cc1OC (mixture of isomers) | 7.26

Next item in the queue.
Q. Give the value of pIC50 reported for the following: COc1ccc(CCC(OC(=O)C2CCCCN2C(=O)C(Cc2ccccc2)c2ccccc2)c2cccc(OCC(=O)O)c2)cc1OC (mixture of isomers)
A. 6.77

###

For each record, write down the corresponding IC50.
- Subject of test: FKBP F36A (Homo sapiens, UniProt P62942, F37A)
- Construct: made in house
- Sequence (P62942 whole entry F37A): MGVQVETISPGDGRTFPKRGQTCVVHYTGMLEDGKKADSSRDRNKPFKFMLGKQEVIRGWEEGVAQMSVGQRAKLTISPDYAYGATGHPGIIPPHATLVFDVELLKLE
- Assay details: Competitive Binding FP Assay, F36A mutant FKBP
Where a name gives a salt, the structure may show the parent alone.
One number for each entry, in nM.

CC[C@H](C(=O)N1CCCC[C@H]1C(=O)O[C@H](CCc1cccnc1)c1cccc(OCC(=O)O)c1)c1cc(OC)c(OC)c(OC)c1 [AP14252, hydrochloride] | 63
CC[C@H](C(=O)N1CCCC[C@H]1C(=O)O[C@H](CCc1ccc(OC)c(OC)c1)c1cccc(OCC(=O)O)c1)c1cc(OC)c(OC)c(OC)c1 | 18

Next item in the queue.
Q. Give the value of IC50 reported for the following: CC[C@H](C(=O)N1CCCC[C@H]1C(=O)O[C@H](CCN1CCOCC1)c1cccc(OCC(=O)O)c1)c1cc(OC)c(OC)c(OC)c1
A. 77

###

- Subject of test: FKBP F36S (Homo sapiens, UniProt P62942, F37S)
- Assay details: Competitive Binding FP Assay, F36S mutant FKBP
- Measurement setup: Synthetic Monomers table; normalized to FK506 run in the same experiment
Assay metric: IC50 (nM)
One number for each entry, in nM.

Q. Give the value of IC50 reported for the following: CCC(C)(C)C(=O)C(=O)N1CCCC[C@H]1C(=O)O[C@H](CCc1ccc(OC)c(OC)c1)c1cccc(OCC(=O)O)c1 [AP1497]
A. 1820

###

- Subject of test: FKBP F36A (Homo sapiens, UniProt P62942, F37A)
- Construct: made in house
- Assay details: Competitive Binding FP Assay, F36A mutant FKBP
- Measurement setup: Synthetic Monomers table; normalized to FK506 run in the same experiment
For each record, write down the corresponding IC50.
One number for each entry, in nM.

Recorded results for 3 compounds are shown here.
COc1ccc(CCC(OC(=O)C2CCCCN2C(=O)C(c2ccccc2)C2CCCC2)c2cccc(OCC(=O)O)c2)cc1OC (mixture of isomers) | 75
COc1ccc(CCC(OC(=O)C2CCCCN2C(=O)C(c2ccccc2)C(C)C)c2cccc(OCC(=O)O)c2)cc1OC (mixture of isomers) | 109
CCC(C)(C)C(=O)C(=O)N1CCCC[C@H]1C(=O)O[C@H](CCc1ccc(OC)c(OC)c1)c1cccc(OCC(=O)O)c1 | 174

Q. Give the value of IC50 reported for the following: COc1ccc(CCC(OC(=O)C2CCCCN2C(=O)C(Cc2ccccc2)c2ccccc2)c2cccc(OCC(=O)O)c2)cc1OC (mixture of isomers)
A. 447
